The reported numbers originate from ChEMBL document CHEMBL4325889.

Give measured inhibition of growth at 10 µM for each item. Keep answers brief.
Tested on: DU-145
test_name: Growth inhibition of human DU145 cells at 10 uM after 48 hrs by SRB assay relative to control
Type: functional
condition: DU-145, 48 h, read-out: GI

Worked examples follow.
>  <record_smiles>
COc1cccc(NC(=O)c2cccc(-c3cc(=O)c4c(OC)c(OC)c(OC)cc4o3)c2)c1

>  <test_value>
28.2%

$$$$
>  <record_smiles>
COc1cc2oc(-c3cccc(C(=O)Nc4ccccc4)c3)cc(=O)c2c(OC)c1OC

>  <test_value>
12.2%

$$$$
>  <record_smiles>
COc1cc2oc(-c3cccc(NC(=O)c4ccc5c(c4)OCO5)c3)cc(=O)c2c(O)c1OC

>  <test_value>
2.12%

$$$$
>  <record_smiles>
COc1cc2oc(-c3cccc(C(=O)Nc4ccccc4)c3)cc(=O)c2c(O)c1OC

>  <test_value>
34.4%

$$$$
>  <record_smiles>
COc1ccccc1NC(=O)c1cccc(-c2cc(=O)c3c(OC)c(OC)c(OC)cc3o2)c1

>  <test_value>
29.6%

$$$$

Hello, I would appreciate it if you could give inhibition of growth at 10 µM for each entry below.
1. COc1ccccc1NC(=O)c1cccc(-c2cc(=O)c3c(O)c(OC)c(OC)cc3o2)c1
2. COc1ccc(C(=O)Nc2cccc(-c3cc(=O)c4c(O)c(OC)c(OC)cc4o3)c2)cc1
3. COc1cc2oc(-c3cccc(NC(=O)c4ccccc4)c3)cc(=O)c2c(OC)c1OC

["5.49%", "5.4%", "14.5%"]

###

Tested on: KM12
test_name: Growth inhibition of human KM12 cells at 10 uM after 48 hrs by SRB assay relative to control
Format: functional
condition: KM12, 48 h, read-out: GI
parameter: inhibition of growth at 10 µM (%)
Numbers only, in %.

>  <record_smiles>
COc1cc2oc(-c3cccc(NC(=O)c4ccccc4)c3)cc(=O)c2c(OC)c1OC

>  <measured_on>
KM12

>  <inhibition of growth at 10 µM (%)>
35.6

$$$$
>  <record_smiles>
COc1cccc(NC(=O)c2cccc(-c3cc(=O)c4c(OC)c(OC)c(OC)cc4o3)c2)c1

>  <measured_on>
KM12

>  <inhibition of growth at 10 µM (%)>
46.3

$$$$
>  <record_smiles>
COc1cc2oc(-c3cccc(NC(=O)c4ccc5c(c4)OCO5)c3)cc(=O)c2c(OC)c1OC

>  <measured_on>
KM12

>  <inhibition of growth at 10 µM (%)>
48.7

$$$$

Provide each entry's inhibition of growth at 10 µM from the list below.
1. COc1cc2oc(-c3cccc(C(=O)Nc4ccc5c(c4)OCO5)c3)cc(=O)c2c(OC)c1OC
2. COc1cc(NC(=O)c2cccc(-c3cc(=O)c4c(O)c(OC)c(OC)cc4o3)c2)cc(OC)c1OC

1. 32.7
2. 46.1

###

Tested on: KM12
test_name: Growth inhibition of human KM12 cells at 10 uM after 48 hrs by SRB assay relative to control
Assay type: functional
condition: KM12, 48 h, read-out: GI
parameter: inhibition of growth at 10 µM

Known inhibition of growth at 10 µM results, listed for orientation:
>  <record_smiles>
COc1cc2oc(-c3cccc(C(=O)Nc4ccccc4)c3)cc(=O)c2c(O)c1OC

>  <inhibition of growth at 10 µM>
42.2%

$$$$
>  <record_smiles>
COc1ccccc1C(=O)Nc1cccc(-c2cc(=O)c3c(O)c(OC)c(OC)cc3o2)c1

>  <inhibition of growth at 10 µM>
5.13%

$$$$

Query compound follows.
Returns the measured inhibition of growth at 10 µM for the input compound. Input: `COc1ccc(C(=O)Nc2cccc(-c3cc(=O)c4c(O)c(OC)c(OC)cc4o3)c2)cc1`
-0.05%
